Origin of the recorded values: paper PMC4336329

tested-target: human ether-à-go-go-related gene (hERG) potassium channel (human, UniProt Q12809)
Sequence (Q12809 whole entry, looked up): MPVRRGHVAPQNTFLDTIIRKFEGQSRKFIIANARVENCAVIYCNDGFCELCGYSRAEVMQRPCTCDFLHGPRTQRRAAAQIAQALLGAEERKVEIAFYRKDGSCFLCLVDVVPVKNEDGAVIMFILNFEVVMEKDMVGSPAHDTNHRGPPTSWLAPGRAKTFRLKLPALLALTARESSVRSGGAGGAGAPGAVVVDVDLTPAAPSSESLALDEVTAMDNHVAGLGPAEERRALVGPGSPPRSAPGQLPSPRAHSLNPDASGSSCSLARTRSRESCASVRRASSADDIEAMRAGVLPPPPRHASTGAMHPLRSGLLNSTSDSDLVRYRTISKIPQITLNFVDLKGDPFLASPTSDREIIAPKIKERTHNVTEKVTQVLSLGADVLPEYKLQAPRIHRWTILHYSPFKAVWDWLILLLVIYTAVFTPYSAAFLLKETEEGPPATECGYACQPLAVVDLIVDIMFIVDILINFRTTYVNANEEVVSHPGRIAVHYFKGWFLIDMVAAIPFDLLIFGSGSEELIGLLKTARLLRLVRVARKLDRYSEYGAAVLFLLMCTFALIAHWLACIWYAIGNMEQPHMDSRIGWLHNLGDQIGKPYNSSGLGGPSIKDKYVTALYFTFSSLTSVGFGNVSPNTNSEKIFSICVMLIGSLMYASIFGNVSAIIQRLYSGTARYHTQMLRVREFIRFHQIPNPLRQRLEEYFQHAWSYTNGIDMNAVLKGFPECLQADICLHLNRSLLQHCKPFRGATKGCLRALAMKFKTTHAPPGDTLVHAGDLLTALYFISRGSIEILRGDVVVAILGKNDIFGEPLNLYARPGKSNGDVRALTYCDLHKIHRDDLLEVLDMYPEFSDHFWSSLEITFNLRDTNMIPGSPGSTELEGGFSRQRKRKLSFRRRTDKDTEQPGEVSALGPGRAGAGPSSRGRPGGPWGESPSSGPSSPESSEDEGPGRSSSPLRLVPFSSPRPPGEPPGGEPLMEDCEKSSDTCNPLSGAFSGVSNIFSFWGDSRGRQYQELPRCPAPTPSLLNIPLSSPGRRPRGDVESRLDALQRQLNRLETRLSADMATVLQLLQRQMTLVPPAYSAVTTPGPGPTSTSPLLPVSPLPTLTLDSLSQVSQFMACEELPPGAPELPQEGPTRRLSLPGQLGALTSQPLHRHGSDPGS
assay-notes: primary screen, population patch clamp on CHO cells stably expressing hERG; higher = less effect of the substance
Hit rate of the full screen: of about 310,000 compounds, about 14,000 (4.5%) showed an effect of 50% or more. Effects have a minus sign here. Only a selection was taken, and strong results are over-represented in it overall.
measure: hERG current change (%, negative = inhibition) at 10uM (%)
Report the figure in % without appending any unit label.

Below, 6 compounds whose answers are already recorded.
- compound: "CNCc1c(OCc2ccccc2)ccc2ccccc12.Cl"
  reported-value: -34.1
- compound: "c1ccc(CCN(Cc2ccccc2)Cc2nc(C3CC3)no2)cc1"
  reported-value: 10.2
- compound: "CCc1ccc(NC(=O)CN2CC(c3ccccc3)CC2=O)cc1 (centres unmarked)"
  reported-value: -27.6
- compound: "O=C(N/N=C/c1c(O)n(CCC2=CCCCC2)c(=S)[nH]c1=O)c1ccccc1"
  reported-value: 7.94
- compound: "CC(C)CNS(=O)(=O)c1cc(C(=O)OCC(=O)N(C)C2CCS(=O)(=O)C2)c(Cl)cc1Cl (centres unmarked)"
  reported-value: -13
- compound: "COc1ccccc1NC=C1C(=O)OC(C)(C)OC1=O"
  reported-value: -24

Which hERG current change (%, negative = inhibition) at 10uM is listed for COc1ccccc1N1CCN(C(=O)CCCn2c(=O)[nH]c3ccsc3c2=O)CC1 ? 4.33

Which hERG current change (%, negative = inhibition) at 10uM is listed for CC(C)(CO)NCc1cccc(OCc2ccc(Cl)cc2)c1 ? -30.8

Which hERG current change (%, negative = inhibition) at 10uM is listed for COc1ccc(/C=C/C(=O)Oc2cccc(/C=N/NC(=O)COc3c(C)cccc3C)c2)cc1 ? 11.8

Which hERG current change (%, negative = inhibition) at 10uM is listed for CCN(CC)S(=O)(=O)c1cccc(C(=O)NCC(=O)OCC(=O)NCc2ccccc2)c1 ? -7.41

Which hERG current change (%, negative = inhibition) at 10uM is listed for COc1cccc(CNC(C)(C)CO)c1OCc1ccc(Cl)cc1.Cl ? -56.6

Which hERG current change (%, negative = inhibition) at 10uM is listed for O=S(=O)(Nc1ccc(F)cc1)N1CCCCCC1 ? -15.6

Which hERG current change (%, negative = inhibition) at 10uM is listed for O=c1[nH]c(=O)n(Cc2ccco2)c(O)c1C=NC1CC1 ? 9.35

Which hERG current change (%, negative = inhibition) at 10uM is listed for C=CCn1c(O)c(C=NC2CCN(Cc3ccccc3)CC2)c(=O)[nH]c1=O ? -33.5

Which hERG current change (%, negative = inhibition) at 10uM is listed for COc1cc(CNC(C)(C)CO)cc(Br)c1OCc1ccc(Cl)cc1.Cl ? -45.7

Which hERG current change (%, negative = inhibition) at 10uM is listed for CC(NC(=O)Nc1ccc(Cl)cc1)C1CCCO1 (centres unmarked) ? 7.05

====

tested-target: human ether-à-go-go-related gene (hERG) potassium channel (human);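 also: peak tail current of the secondary pulse compared with the same well before compound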
assay-notes: primary screen, population patch clamp on CHO cells stably expressing hERG; higher = less effect of the substance
The campaign covered roughly 310,000 compounds. About 14,000 (4.5%) showed an effect of 50% or more. Effects have a minus sign here. The sample as a whole holds a higher share of strong results than the screen did.
measure: hERG current change (%, negative = inhibition) at 10uM (%)
Report the figure in % without appending any unit label.

Below, 2 molecules whose answers are already recorded.
- smiles-text: "O=C1c2ccc(Oc3ccc([N+](=O)[O-])cc3)cc2C(=O)N1CCO"
  tested-target: "human ether-à-go-go-related gene (hERG) potassium channel (human)"
  result-units: "%"
  reported-value: -52.8
- smiles-text: "NC1=NC[C@@H](Cc2ccc(O)cc2)N1CCc1cccc(F)c1"
  tested-target: "human ether-à-go-go-related gene (hERG) potassium channel (human)"
  result-units: "%"
  reported-value: 5.43

Please examine the following record next.
Form entry - test system: human ether-à-go-go-related gene (hERG) potassium channel (human); read-out: hERG current change (%, negative = inhibition) at 10uM; molecule: COC(=O)c1scc(C)c1NC(=O)Nc1ccccc1 3.91

====

tested-target: human ether-à-go-go-related gene (hERG) potassium channel (human, UniProt Q12809);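 also: peak tail current of the secondary pulse compared with the same well before compound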
assay-notes: primary screen, population patch clamp on CHO cells stably expressing hERG; higher = less effect of the substance
About 14,000 (4.5%) of roughly 310,000 compounds showed an effect of 50% or more. The effect is printed as a negative number. The list comes from a sample in which strong results are over-represented; it also holds close analogues and randomly drawn compounds.
# reported hERG current change (%, negative = inhibition) at 10uM; entries follow
Report the figure in % without appending any unit label.

- compound: "O=C(NCc1cccnc1)/C(=C/c1ccc(-c2cccc(Cl)c2)o1)S(=O)(=O)c1ccccc1"
  reported-value: -26.2
- compound: "COC(=O)CN1C(c2cccc(Cl)c2)=Nc2ccc(Cl)cc2C1c1ccccc1 (stereo not drawn)"
  reported-value: 1.61
- compound: "COC(=O)c1ccccc1NC(=O)CSc1nnc(-c2cccc(NC(C)=O)c2)n1C"
  reported-value: -3.68
- compound: "NNC(=O)CN1C(c2ccccc2)=Nc2ccc(Br)cc2C1c1ccccc1 (stereo not drawn)"
  reported-value: -20
- compound: "Cl.OC(COCC1COc2ccccc2O1)CN1CCN(c2ccccc2F)CC1 (stereo not drawn)"
  reported-value: -58.9

Please examine the following record next.
Which hERG current change (%, negative = inhibition) at 10uM is listed for CC12CCC(C(=O)Nc3ccccc3Br)(C/C1=N\O)C2(C)C (stereo not drawn) ? 4.44

====

tested-target: human ether-à-go-go-related gene (hERG) potassium channel (human);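 also: peak tail current of the secondary pulse compared with the same well before compound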
assay-notes: primary screen, population patch clamp on CHO cells stably expressing hERG; higher = less effect of the substance
Hit rate of the full screen: of about 310,000 compounds, about 14,000 (4.5%) showed an effect of 50% or more. The effect is printed as a negative number. Shown is part of a subset that was picked to be rich in strong results.
Parameter threshold = -20%. Response is fulfilled when hERG current change (%, negative = inhibition) at 10uM meets or exceeds it, else not fulfilled.

- compound: "O=C(O)COCC(=O)NC1CCN(Cc2ccccc2)CC1"
  qualitative-label: "fulfilled"
- compound: "Cc1c(C(=O)OCC(=O)N(C)c2ccccc2)oc2ccccc12"
  qualitative-label: "fulfilled"
- compound: "Cc1c(C(=O)OC(C)CCN(C)C)oc2ccccc12.Cl (centres unmarked)"
  qualitative-label: "not fulfilled"
- compound: "COc1ccc(NC(=O)c2cccc(NC(=O)c3ccccc3)c2)cc1"
  qualitative-label: "fulfilled"
- compound: "Cl.O=C(NCCN1CCCC1)c1cccc(Cl)c1"
  qualitative-label: "not fulfilled"

For this compound, is measured hERG current change (%, negative = inhibition) at 10uM -20% or higher? Clc1ccc2oc(SCc3cccnc3)nc2c1 fulfilled

For this compound, is measured hERG current change (%, negative = inhibition) at 10uM -20% or higher? Cc1ccc(-c2ccc(C(=O)O)[nH]2)cc1 fulfilled

For this compound, is measured hERG current change (%, negative = inhibition) at 10uM -20% or higher? CCc1cc(=O)oc2cc(C)cc(OCC(=O)NC3CCN(Cc4ccccc4)CC3)c12 not fulfilled

For this compound, is measured hERG current change (%, negative = inhibition) at 10uM -20% or higher? CCCCOC(=O)c1ccc(NC(=O)C(=O)NCc2ccncc2)cc1 fulfilled

For this compound, is measured hERG current change (%, negative = inhibition) at 10uM -20% or higher? Cc1c(OCC(=O)NC2CCN(Cc3ccccc3)CC2)ccc2c3c(c(=O)oc12)CCC3 not fulfilled

For this compound, is measured hERG current change (%, negative = inhibition) at 10uM -20% or higher? Cc1cccc(C(=O)NCCN2CCCC2)c1.Cl fulfilled

For this compound, is measured hERG current change (%, negative = inhibition) at 10uM -20% or higher? CCOc1ccc2oc(C(=O)N3CCN(Cc4ccccc4)CC3)c(C)c2c1 fulfilled

For this compound, is measured hERG current change (%, negative = inhibition) at 10uM -20% or higher? COc1cccc(Nc2nc(N)nc(CCl)n2)c1 fulfilled

For this compound, is measured hERG current change (%, negative = inhibition) at 10uM -20% or higher? CC1CCN(C(=S)SCc2nc(N)nc(Nc3ccccc3)n2)CC1 fulfilled

====

tested-target: human ether-à-go-go-related gene (hERG) potassium channel (human, UniProt Q12809);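 also: peak tail current of the secondary pulse compared with the same well before compound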
assay-notes: primary screen, population patch clamp on CHO cells stably expressing hERG; higher = less effect of the substance
Procedure: Briefly, Chinese hamster ovary (CHO) cells stably expressing the hERG channel were dislodged from tissue culture flasks and dispensed into PPC plates. […] During the recording, background leak currents were estimated by a 100 ms step to -80 mV from an initial holding potential of -70 mV and subtracted from the subsequent current measurement. The campaign was conducted in two phases using slight differences in recording protocol. […]
Screen size: about 310,000 compounds; about 14,000 (4.5%) showed an effect of 50% or more. Effects have a minus sign here. Shown is part of a subset that was picked to be rich in strong results.
measure: hERG current change (%, negative = inhibition) at 10uM (%)
Report the figure in % without appending any unit label.

Below, 2 compounds whose answers are already recorded.
- compound: "COc1ccc(N=C2C(=O)N3c4c(cccc42)C(C)=CC3(C)C)cc1"
  reported-value: 9
- compound: "O=C(COC(=O)C1CC(=O)N(Cc2ccccc2)C1)Nc1ccc(Cl)cc1F (stereo not shown)"
  reported-value: 48

Which hERG current change (%, negative = inhibition) at 10uM is listed for CCc1ccc(OCC(=O)NCC(c2ccc(Cl)cc2)N2CCCCC2)cc1 (stereo not shown) ? -6.4

Which hERG current change (%, negative = inhibition) at 10uM is listed for O=C(NCCCO)/C(=C/c1ccc(-c2cccc([N+](=O)[O-])c2)o1)NC(=O)c1ccccc1 ? -31.5

Which hERG current change (%, negative = inhibition) at 10uM is listed for [N-]=C=C1C(=S)NC(=O)[C@H]([n+]2ccccc2)[C@H]1c1ccc(Cl)cc1 ? 15.9
